Biological target: T1, human IL-12Rβ2 expressed on cells (human, UniProt Q99665 24-862)
T1 sequence: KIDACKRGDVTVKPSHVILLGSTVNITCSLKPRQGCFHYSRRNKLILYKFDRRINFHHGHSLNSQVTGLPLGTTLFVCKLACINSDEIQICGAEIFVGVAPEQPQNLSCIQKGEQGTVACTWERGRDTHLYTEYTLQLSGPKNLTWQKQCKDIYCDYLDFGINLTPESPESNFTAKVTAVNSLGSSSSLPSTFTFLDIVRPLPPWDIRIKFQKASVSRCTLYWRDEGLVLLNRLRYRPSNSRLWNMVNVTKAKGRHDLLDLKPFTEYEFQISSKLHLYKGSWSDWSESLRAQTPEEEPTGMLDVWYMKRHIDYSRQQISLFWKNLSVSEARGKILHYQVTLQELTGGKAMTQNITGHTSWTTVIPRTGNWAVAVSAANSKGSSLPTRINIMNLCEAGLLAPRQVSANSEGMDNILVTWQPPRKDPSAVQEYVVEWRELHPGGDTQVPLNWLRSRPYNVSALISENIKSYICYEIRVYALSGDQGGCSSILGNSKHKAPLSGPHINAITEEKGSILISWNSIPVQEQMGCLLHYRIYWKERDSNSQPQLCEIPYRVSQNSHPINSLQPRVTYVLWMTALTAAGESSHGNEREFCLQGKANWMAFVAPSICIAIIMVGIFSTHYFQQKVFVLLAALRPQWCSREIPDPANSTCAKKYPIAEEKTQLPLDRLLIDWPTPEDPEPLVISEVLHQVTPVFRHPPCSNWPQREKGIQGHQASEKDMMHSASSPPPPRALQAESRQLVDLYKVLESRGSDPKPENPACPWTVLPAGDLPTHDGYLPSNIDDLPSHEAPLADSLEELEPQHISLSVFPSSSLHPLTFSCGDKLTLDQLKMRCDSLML
Test: cell-based or functional assay
MEASURED_METRIC: % Specific Cell Lysis at 10 ug/mL (%)
Your answer should be a plain number; it is taken to be in %.

BINDER	% Specific Cell Lysis at 10 ug/mL, %
20399-FcDE (Fc fusion) VHH-Fc chain: QVQLQESGGGLVQPGGSLRLSCAASGSILRINLMGWYRQVPGKQRELVAEMSTGGSTTYVDSVEGRFTISRDNAKNTVYLQMNSLKPEDTAVYYCNAKAWQLGRLENDDWGQGTQVTVSSAPELLGGPDVFLFPPKPKDTLMISRTPEVTCVVVDVSHEDPEVKFNWYVDGVEVHNAKTKPREEQYNSTYRVVSVLTVLHQDWLNGKEYKCKVSNKALPAPEEKTISKAKGQPREPQVYTLPPSRDELTKNQVSLTCLVKGFYPSDIAVEWESNGQPENNYKTTPPVLDSDGSFFLYSKLTVDKSRWQQGNVFSCSVMHEALHNHYTQKSLSLSPGK	72.4

Pending binder:
For this binder ( anti-IL-12Rβ2-VHH-FcDE clone 20438 (Fc fusion) QVQLQESGGGLVQPGGSLRLSCTASGFAFSTYWMYWIRQSPEKGFEWVSVVNTGGDITYYADSVKGRFTISRDNAKNTLYLQMNSLKPEDTALYYCARDRTTMSYTRTYYRGGQGTQVTVSSAPELLGGPDVFLFPPKPKDTLMISRTPEVTCVVVDVSHEDPEVKFNWYVDGVEVHNAKTKPREEQYNSTYRVVSVLTVLHQDWLNGKEYKCKVSNKALPAPEEKTISKAKGQPREPQVYTLPPSRDELTKNQVSLTCLVKGFYPSDIAVEWESNGQPENNYKTTPPVLDSDGSFFLYSKLTVDKSRWQQGNVFSCSVMHEALHNHYTQKSLSLSPGK ), measured % Specific Cell Lysis at 10 ug/mL is 66.9
